# Test system: anti-MUC1 antibody SM3
# run-description: ELISA binding of anti-MUC1 antibody SM3 to synthetic MUC1 VNTR peptides
# Set-up: key: +++ indicates strong binding; ++ indicates fair binding; + indicates weak binding; − indicates no significant binding
# recorded-conditions: peptide coated 50 μg/ml to 25 ng/ml; semiquantitative scale; absorbance at 490 nm
property-measured: ELISA signal, Antibody SM3

Some entries whose results are on file:
>>> reported("Ac-(PAHGVVAAPDNRPAPGAVAP)2-NH2 [Mut5N]")
"−"
>>> reported("Ac-(PAHGVVAAPDTRPAPGAVAP)2-NH2 [Mut4]")
"+++"
>>> reported("Ac-(PAHGVVAAPDIRPAPGAVAP)2-NH2 [Mut5I]")
"+++"
>>> reported("Ac-(PAHGVVAAPDVRPAPGAVAP)2-NH2 [Mut5V]")
"+++"
>>> reported("Ac-(PAHGVVAAPDPRPAPGAVAP)2-NH2 [Mut5P]")
"−"

Please report ELISA signal, Antibody SM3 for every entry that follows.
1. Ac-(PAHGVVAAPDARPAPGAVAP)2-NH2 [Mut5A]
2. Ac-(PAHGVVAAPDWRPAPGAVAP)2-NH2 [Mut5W]

-- reply
["−", "−"]
